System: KBvin
Assay: Cell cytotoxicity assay (MTS), KBvin
Assay type: cell-based, human
Conditions: KBvin vs KB
Method: Cells were seeded into the wells of 96-well plates (2000 cells/well). After an overnight culture, the cells were treated with different concentrations of a compound for 72 h. The CellTiter 96 AQueous one-solution cell proliferation assay (MTS) reagent was used to determine cytotoxicity. […] Next, the absorbance at 490 nm of the culture medium in each well was determined using a VersaMax microplate reader (Molecular Devices).
Kindly supply the reported RF, resistance factor (IC50 in resistant cell line/IC50 in parent cell line) values for the records listed here.

Example cases with answers are listed next.
• CCOC(=O)c1ccc2[nH]c(-c3cccc(F)c3)cc(=O)c2c1 = 1
• CC[C@]1(O)C[C@H]2CN(CCc3c([nH]c4ccccc34)[C@@](C(=O)OC)(c3cc4c(cc3OC)N(C=O)[C@H]3[C@@](O)(C(=O)OC)[C@H](OC(C)=O)[C@]5(CC)C=CCN6CC[C@]43[C@@H]65)C2)C1 = 163
• CC(=O)O[C@H]1C(=O)[C@@]2(C)[C@H]([C@H](OC(=O)c3ccccc3)[C@]3(O)C[C@H](OC(=O)[C@H](O)[C@@H](NC(=O)c4ccccc4)c4ccccc4)C(C)=C1C3(C)C)[C@]1(OC(C)=O)CO[C@@H]1C[C@@H]2O = 70

Value sought for every listed compound: RF, resistance factor (IC50 in resistant cell line/IC50 in parent cell line).
1. CCOC(=O)c1ccc2[nH]c(-c3ccccc3)cc(=O)c2c1
2. C/C(=C\c1csc(C)n1)[C@@H]1C[C@@H]2O[C@]2(C)CCC[C@H](C)[C@H](O)[C@@H](C)C(=O)C(C)(C)[C@@H](O)CC(=O)N1 [Ixabepilone, ixabepilone]

Ans:
1
24
